Test system: HT29 colon
TEST DETAILS: NCI tumour cell line growth inhibition, 48 h
ASSAY METRIC: TGI

[
  {
    "COMPOUND": "CC(C)(C)[Si](C)(C)OC[C@H](/C=C\\CCCC(=O)O)NC1(c2ccccc2)c2ccccc2-c2ccccc21",
    "ASSAY METRIC": "TGI",
    "RESULT": "47.6 µM"
  },
  {
    "COMPOUND": "O=C(CCC1CCCCN1)Nc1ccc2c(c1)C(=O)c1ccc(NC(=O)CCN3CCCCC3)cc1C2=O (stereo not given)",
    "ASSAY METRIC": "TGI",
    "RESULT": "10.8 µM"
  },
  {
    "COMPOUND": "C=CC[C@H](N=C(SC)SC)C(=O)N1C(=O)N(C)[C@@H](C)[C@H]1c1ccccc1",
    "ASSAY METRIC": "TGI",
    "RESULT": "> 100 µM"
  },
  {
    "COMPOUND": "COc1cc(-c2cc(=O)c3c(O)c(OC)c(OC)c(OC)c3o2)cc(OC)c1OC",
    "ASSAY METRIC": "TGI",
    "RESULT": "> 100 µM"
  },
  {
    "COMPOUND": "CC(=O)c1c2c(cc3c1CC1(C3)Cc3cc4c(c(C(=O)O)c3C1)CCC4)CCC2 (stereo not given)",
    "ASSAY METRIC": "TGI",
    "RESULT": "> 100 µM"
  },
  {
    "COMPOUND": "CC(=O)Nc1ccc(-c2nnc(SCC(=O)Nc3ccc(Cl)cc3)o2)cc1",
    "ASSAY METRIC": "TGI",
    "RESULT": "23.2 µM"
  },
  {
    "COMPOUND": "COc1ccc2c(c1)/C(=N/OC(C)=O)c1c-2cnc2ccccc12",
    "ASSAY METRIC": "TGI",
    "RESULT": "> 100 µM"
  },
  {
    "COMPOUND": "O=c1cc(N2CCCC2)[nH]c(=O)n1-c1ccc(Cl)cc1",
    "ASSAY METRIC": "TGI",
    "RESULT": "> 100 µM"
  },
  {
    "COMPOUND": "O=c1[nH]c2ccc([N+](=O)[O-])cc2nc1/C=C(\\O)c1ccccc1",
    "ASSAY METRIC": "TGI",
    "RESULT": "> 100 µM"
  },
  {
    "COMPOUND": "C/C(CC(=O)Nc1cccc([N+](=O)[O-])c1)=N\\NC(=O)CC#N",
    "ASSAY METRIC": "TGI",
    "RESULT": "> 100 µM"
  }
]

----------
Test system: SNB-19 CNS
TEST DETAILS: NCI tumour cell line growth inhibition, 48 h
GI50 values, listed per item
ASSAY METRIC: GI50

[
  {
    "TEST SMILES": "COc1ccc(C2=Nc3c/c(=C\\c4c(O)[nH]c5cc(Cl)ccc45)ccc3=N2)cc1",
    "ASSAY METRIC": "GI50",
    "RESULT": "15100 nM"
  },
  {
    "TEST SMILES": "O=C(c1ccc2ccccc2c1)c1c(C(F)(F)F)n([O-])c2ccc(F)cc2[n+]1=O",
    "ASSAY METRIC": "GI50",
    "RESULT": "1510 nM"
  },
  {
    "TEST SMILES": "CCN(CC)Cc1cc(Nc2c3ccccc3nc3cc(Cl)ccc23)ccc1O",
    "ASSAY METRIC": "GI50",
    "RESULT": "2040 nM"
  },
  {
    "TEST SMILES": "Oc1ccc(Cl)cc1/C=N\\NC(=S)N/N=C/c1cc(Cl)ccc1O",
    "ASSAY METRIC": "GI50",
    "RESULT": "3400 nM"
  },
  {
    "TEST SMILES": "CC(/C=N/N=C(N)N)=N\\N=C(N)N",
    "ASSAY METRIC": "GI50",
    "RESULT": "14500 nM"
  },
  {
    "TEST SMILES": "CCCN1CCC=C(c2ccc(Nc3nc(Nc4ccccc4C(N)=O)c4cc[nH]c4n3)c(C)c2)C1",
    "ASSAY METRIC": "GI50",
    "RESULT": "> 25000 nM"
  },
  {
    "TEST SMILES": "CN1CCN(c2ccc3nc(-c4ccc(OCCCCN5CCN(CCCCN6C(=O)c7cccc8cccc(c78)C6=O)CC5)cc4)[nH]c3c2)CC1",
    "ASSAY METRIC": "GI50",
    "RESULT": "> 100000 nM"
  },
  {
    "TEST SMILES": "COc1ccc(C(=O)c2cc3c(N)c(C(=O)Nc4cccc(OC)c4)sc3nc2C)cc1",
    "ASSAY METRIC": "GI50",
    "RESULT": "513 nM"
  },
  {
    "TEST SMILES": "COc1cccc2c1cc1c3c(cc4c(c32)OCO4)C(=O)N1",
    "ASSAY METRIC": "GI50",
    "RESULT": "6370 nM"
  },
  {
    "TEST SMILES": "Cc1c(Cl)cccc1NC(=O)c1sc2nc3c(cc2c1N)CCCC3",
    "ASSAY METRIC": "GI50",
    "RESULT": "979 nM"
  },
  {
    "TEST SMILES": "COc1cc(Cn2c(-c3ccccc3)cc3c2-c2oncc2CC3)cc(OC)c1",
    "ASSAY METRIC": "GI50",
    "RESULT": "562 nM"
  }
]

----------
Test system: HOP-62 NSCLC
TEST DETAILS: NCI tumour cell line growth inhibition, 48 h
ASSAY METRIC: GI50

[
  {
    "TEST SMILES": "O=C(/C=C/c1ccc([N+](=O)[O-])cc1)c1cccc(Nc2nc(Nc3ccccc3)nc(Nc3ccccc3)n2)c1",
    "TESTED ON": "HOP-62 NSCLC",
    "ASSAY METRIC": "GI50",
    "RESULT": "32.2 µM"
  },
  {
    "TEST SMILES": "COc1cccc(NC2=C(Cl)C(=O)N(Cc3ccc(Cl)cc3)C2=O)c1",
    "TESTED ON": "HOP-62 NSCLC",
    "ASSAY METRIC": "GI50",
    "RESULT": "2.4 µM"
  },
  {
    "TEST SMILES": "C/C(=N/O)c1ccc(Nc2cc(-n3ccnc3)c3ccccc3n2)cc1",
    "TESTED ON": "HOP-62 NSCLC",
    "ASSAY METRIC": "GI50",
    "RESULT": "53.2 µM"
  },
  {
    "TEST SMILES": "Cc1c2ccncc2c(C)c2c1[nH]c1ccc(Cl)cc12",
    "TESTED ON": "HOP-62 NSCLC",
    "ASSAY METRIC": "GI50",
    "RESULT": "2.66 µM"
  },
  {
    "TEST SMILES": "C=C(C)[C@@H]1CC[C@]2(CO)CC[C@]3(C)[C@H](CC[C@@H]4[C@@]5(C)CC[C@H](NCO)C(C)(C)[C@@H]5CC[C@]43C)[C@@H]12",
    "TESTED ON": "HOP-62 NSCLC",
    "ASSAY METRIC": "GI50",
    "RESULT": "0.862 µM"
  }
]
